- TARGET_OF_ASSAY: human full-length MKNK1 (Homo sapiens, UniProt Q9BUB5, T385D)
- Sequence (Q9BUB5 1-424 isoform Q9BUB5-2 T344D): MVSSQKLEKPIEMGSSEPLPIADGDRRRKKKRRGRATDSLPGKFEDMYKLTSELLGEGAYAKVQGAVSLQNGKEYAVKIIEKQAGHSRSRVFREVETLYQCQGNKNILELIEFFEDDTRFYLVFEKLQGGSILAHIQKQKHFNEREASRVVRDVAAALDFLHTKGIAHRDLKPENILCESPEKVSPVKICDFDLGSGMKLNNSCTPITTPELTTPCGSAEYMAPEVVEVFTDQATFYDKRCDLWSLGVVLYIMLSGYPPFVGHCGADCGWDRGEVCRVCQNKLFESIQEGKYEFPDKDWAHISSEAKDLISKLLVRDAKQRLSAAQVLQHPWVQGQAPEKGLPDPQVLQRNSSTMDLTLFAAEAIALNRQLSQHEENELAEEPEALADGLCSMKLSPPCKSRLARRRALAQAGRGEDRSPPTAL
- ASSAY_COMMENT: MKNK1 kinase high ATP assay (TR-FRET)
- RECORDED_CONDITIONS: high ATP (2 mM final), 15 min preincubation with enzyme, GST-MKNK1 (T344D)
READOUT_KIND: IC50 (nM)

compound="CCc1[nH]c2ncnc(Nc3cc4cn[nH]c4cn3)c2c1C [Example 8]" readout_kind=IC50 val=11.5
compound="C[C@@H]1COCCN1C(=O)c1[nH]c2ncnc(Nc3cc4cn[nH]c4cn3)c2c1Br [Example 70]" readout_kind=IC50 val=40.7
compound="C[C@H]1COCCN1C(=O)c1[nH]c2ncnc(Nc3cnc4[nH]ncc4c3)c2c1Br [Example 75]" readout_kind=IC50 val=61
compound="CN(C)C(=O)CNC(=O)c1cc2c(Nc3cc4cn[nH]c4cn3)ncnc2[nH]1 [Example 76]" readout_kind=IC50 val=71.5
compound="CCCCN(C)C(=O)[C@H]1CCc2c(sc3ncnc(Nc4cc5cn[nH]c5nc4OC)c23)C1 [Example 51]" readout_kind=IC50 val=0.5
compound="COCCN(C)C(=O)[C@H]1CCc2c(sc3ncnc(Nc4cnc5[nH]ncc5c4)c23)C1 [Example 96]" readout_kind=IC50 val=18.8
compound="CN(C)CCCN(C)C(=O)c1[nH]c2ncnc(Nc3cc4cn[nH]c4cn3)c2c1Br [Example 119]" readout_kind=IC50 val=67.7
compound="COc1nc2[nH]ncc2cc1Nc1ncnc2sc(C(=O)N3CCCCC3)nc12 [Example 133]" readout_kind=IC50 val=150

###

Each entry below carries its recorded log10 IC50.
- TARGET_OF_ASSAY: human full-length MKNK1 (Homo sapiens, UniProt Q9BUB5, T385D)
- ASSAY_COMMENT: MKNK1 kinase high ATP assay (TR-FRET)
- RECORDED_CONDITIONS: high ATP (2 mM final), 15 min preincubation with enzyme, GST-MKNK1 (T344D)
READOUT_KIND: log10 IC50 (log10 of the value in nM)

compound=CC(C)NC(=O)[C@H]1CCc2c(sc3ncnc(Nc4cc5cn[nH]c5cn4)c23)C1 readout_kind="log10 IC50" val=1.38
compound=C[C@H]1COCCN1C(=O)[C@H]1CCc2c(sc3ncnc(Nc4cc5cn[nH]c5cn4)c23)C1 readout_kind="log10 IC50" val=1.02
compound=O=C(c1[nH]c2ncnc(Nc3cc4cn[nH]c4nc3O)c2c1Br)N1CCOCC1 readout_kind="log10 IC50" val=1.00
compound=CN(C)C(=O)[C@H]1CCc2c(sc3ncnc(Nc4cc5cn[nH]c5cn4)c23)C1 readout_kind="log10 IC50" val=0.89
compound=COc1nc2[nH]ncc2cc1Nc1ncnc2sc(C(=O)N(C)CC(=O)N(C)C)nc12 readout_kind="log10 IC50" val=2.33
compound=COc1nc2[nH]ncc2cc1Nc1ncnc2sc3c(c12)CC[C@H](C(=O)N(C)C)C3 readout_kind="log10 IC50" val=-0.30
compound="CC(C)NC(=O)C1CCc2c(sc3ncnc(Nc4cc5cn[nH]c5cn4)c23)C1 (racemic)" readout_kind="log10 IC50" val=1.03
compound=CN(C)CCCN(C)C(=O)c1[nH]c2ncnc(Nc3cc4cn[nH]c4nc3O)c2c1Br readout_kind="log10 IC50" val=1.37

###

- TARGET_OF_ASSAY: human full-length MKNK1 (Homo sapiens, UniProt Q9BUB5, T385D)
- ASSAY_COMMENT: MKNK1 kinase high ATP assay (TR-FRET)
- RECORDED_CONDITIONS: high ATP (2 mM final), 15 min preincubation with enzyme, GST-MKNK1 (T344D)
READOUT_KIND: IC50

smiles_code=CCOC(=O)c1cc2c(Nc3cc4cn[nH]c4cn3)ncnc2[nH]1 val="6.6 nM"
smiles_code=CCOC(=O)c1cc2c(Nc3cnc4[nH]ncc4c3)ncnc2[nH]1 val="3 nM"
smiles_code=COc1nc2[nH]ncc2cc1Nc1ncnc2sc3c(c12)CC[C@H](C(=O)N1CC(N(C)C)C1)C3 val="1.2 nM"

###

- TARGET_OF_ASSAY: human full-length MKNK1 (Homo sapiens, UniProt Q9BUB5, T385D)
- ASSAY_COMMENT: MKNK1 kinase high ATP assay (TR-FRET)
- RECORDED_CONDITIONS: high ATP (2 mM final), 15 min preincubation with enzyme, GST-MKNK1 (T344D)
READOUT_KIND: IC50 (nM)

molecule=CN(C)C(=O)CCN(C)C(=O)c1nc2c(Nc3cnc4[nH]ncc4c3)ncnc2s1 value_units=nM val=4290
molecule="CN(C)C(=O)C1CCc2[nH]c3ncnc(Nc4cnc5[nH]ncc5c4)c3c2C1 (racemic)" value_units=nM val=50.7
molecule=CCCN(CCOC)C(=O)[C@H]1CCc2c(sc3ncnc(Nc4cc5cn[nH]c5nc4OC)c23)C1 value_units=nM val=0.3
molecule=CCN(C)C(=O)[C@H]1CCc2c(sc3ncnc(Nc4cc5cn[nH]c5cn4)c23)C1 value_units=nM val=17.3
molecule=COc1nc2[nH]ncc2cc1Nc1ncnc2sc3c(c12)CC[C@H](C(=O)N1CC(C#N)C1)C3 value_units=nM val=0.7
molecule=CN(CCC(F)(F)F)C(=O)[C@H]1CCc2c(sc3ncnc(Nc4cc5cn[nH]c5cn4)c23)C1 value_units=nM val=6.2
molecule=CC(C)N(C)C(=O)[C@H]1CCc2c(sc3ncnc(Nc4cnc5[nH]ncc5c4)c23)C1 value_units=nM val=18
molecule=Cc1c[nH]c2ncnc(Nc3cnc4[nH]ncc4c3)c12 value_units=nM val=25.9

###

Each entry below carries its recorded log10 of IC50.
- TARGET_OF_ASSAY: human full-length MKNK1 (Homo sapiens, UniProt Q9BUB5, T385D)
- ASSAY_COMMENT: MKNK1 kinase high ATP assay (TR-FRET)
- RECORDED_CONDITIONS: high ATP (2 mM final), 15 min preincubation with enzyme, GST-MKNK1 (T344D)
READOUT_KIND: log10 of IC50 (log10 of the value in nM)

compound=CN(C)C1CCN(C(=O)c2[nH]c3ncnc(Nc4cc5cn[nH]c5cn4)c3c2Br)CC1 val=1.30
compound="CN(C)C(=O)C1CCc2c(sc3ncnc(Nc4cc5cn[nH]c5cn4)c23)C1 (racemic)" val=0.99
compound=COc1nc2[nH]ncc2cc1Nc1ncnc2sc3c(c12)CC[C@H](C(=O)N1C[C@H]2C[C@@H]1CO2)C3 val=0.20
compound=CN(CCN(C)C(=O)c1cc2c(Nc3cc4cn[nH]c4cn3)ncnc2[nH]1)Cc1ccccc1 val=0.87
compound=CN(C)C(=O)c1nc2c(Nc3cnc4[nH]ncc4c3)ncnc2s1 val=2.36
compound=COc1nc2[nH]ncc2cc1Nc1ncnc2sc3c(c12)CC[C@H](C(=O)N(C)CCC(F)(F)F)C3 val=-0.30
compound=COc1nc2[nH]ncc2cc1Nc1ncnc2sc3c(c12)CC[C@H](C(=O)N1CCOC[C@H]1C)C3 val=-0.05
compound="CN1CCN(C(=O)C2CCc3c(sc4ncnc(Nc5cc6cn[nH]c6cn5)c34)C2)CC1 (racemic)" val=1.58
compound=O=C(c1[nH]c2ncnc(Nc3cc4cn[nH]c4cn3)c2c1Br)N1CCOCC1 val=1.64
compound=CN(C)CCN(C)C(=O)c1[nH]c2ncnc(Nc3cc4cn[nH]c4nc3O)c2c1Br val=1.16
compound=c1nc(Nc2cc3cn[nH]c3cn2)c2cc[nH]c2n1 val=1.38
compound=COc1nc2[nH]ncc2cc1Nc1ncnc2sc3c(c12)CC[C@H](C(=O)N(C)C(C)C)C3 val=0.62
compound=CCCCN(C)C(=O)[C@H]1CCc2c(sc3ncnc(Nc4cc5cn[nH]c5nc4O)c23)C1 val=0.78
compound=COc1nc2[nH]ncc2cc1Nc1ncnc2[nH]c(C(=O)N3CCOCC3)c(Br)c12 val=1.18
compound=CCN(C)C(=O)[C@H]1CCc2c(sc3ncnc(Nc4cnc5[nH]ncc5c4)c23)C1 val=1.19
compound=CN(C)C1CCN(C(=O)c2[nH]c3ncnc(Nc4cnc5[nH]ncc5c4)c3c2Br)CC1 val=1.89

###

- TARGET_OF_ASSAY: human full-length MKNK1 (Homo sapiens, UniProt Q9BUB5, T385D)
- ASSAY_COMMENT: MKNK1 kinase high ATP assay (TR-FRET)
- RECORDED_CONDITIONS: high ATP (2 mM final), 15 min preincubation with enzyme, GST-MKNK1 (T344D)
pIC50: −log10 of the molar value.
Each entry below carries its recorded pIC50.
READOUT_KIND: pIC50

molecule="CCOC(=O)c1[nH]c2ncnc(Nc3cnc4[nH]ncc4c3)c2c1Br [Example 12]" val=8.30
molecule="CN(C)C(=O)C1CCc2c(sc3ncnc(Nc4cnc5[nH]ncc5c4)c23)C1 (racemic) [Example 27]" val=7.69
molecule="O=C([C@H]1CCc2c(sc3ncnc(Nc4cnc5[nH]ncc5c4)c23)C1)N1CC2(COC2)C1 [Example 98]" val=7.80
molecule="C[C@H]1COCCN1C(=O)c1[nH]c2ncnc(Nc3cc4cn[nH]c4cn3)c2c1Br [Example 121]" val=7.52
molecule="C[C@@H]1COCCN1C(=O)[C@H]1CCc2c(sc3ncnc(Nc4cnc5[nH]ncc5c4)c23)C1 [Example 103]" val=7.45
molecule="CN(C)C1CCN(C(=O)[C@H]2CCc3c(sc4ncnc(Nc5cnc6[nH]ncc6c5)c34)C2)CC1 [Example 107]" val=7.88
molecule="CN(C)C(=O)CCN(C)C(=O)c1nc2c(Nc3cc4cn[nH]c4cn3)ncnc2s1 [Example 137]" val=6.69
molecule="c1nc(Nc2cnc3[nH]ncc3c2)c2cc[nH]c2n1 [Example 1]" val=7.55
